Data credit: PubChem BioAssay

Experiment: HepG2 cytotoxicity, primary screen, cytotoxicity control for P. falciparum antimalarial project, cell-based, ATP luminescence (AID 2303)
Details: HepG2 viability, 24-48 h, at 10 µM, stronger effect = higher value
Could you please mark MET for values of inhibition below 9% and NOT MET for values at or above it?

| compound_structure_string | assigned_label |
| --- | --- |
| Cc1cccc(CNc2nc(C)cc(N[C@@H](CC(C)C)C(=O)NCc3cccc(F)c3)n2)c1 | NOT MET |
| O[C@@H](c1ccc2ccccc2c1)[C@@H]1CN(CCc2ccccc2)CC[C@@]1(O)c1ccccc1 | MET |
| Oc1c(Cl)cc(-c2ccccc2)cc1CNC1CCCCC1 | MET |
| Cc1cccc2[nH]c(-c3ccc(-c4ccc(CNCc5cnn(-c6ccccc6)n5)cc4)cc3)nc12 | NOT MET |
| Nc1c(C(=O)NCCCCN2CCN(c3nsc4ccccc34)CC2)sc2ccccc12 | NOT MET |
| O=c1cc(NCCCNCc2ccc(Cl)c(Cl)c2)[nH]c2ccc(Oc3ccccc3)cc12 | MET |
| Oc1ccc(CCCNc2nc(NCc3ccccc3-c3ccccc3)nc(N3CCNCC3)n2)cc1 | NOT MET |
| CCCN1CCN(CCCCNc2c3ccccc3nc3ccccc23)CC1 | NOT MET |
| Cc1cc(N2CCC(C)CC2)nc2cc(O)ccc12 | NOT MET |
